// read-out pIC50, gathered for Coagulation factor X (Homo sapiens) from published studies
pIC50: −log10 of the molar value.
Assign class by pIC50: not lower than 6 means condition met; lower than 6 means condition not met.

- Nc1cccc(-c2c(Cl)nc(NC3CCC3)c(=O)n2CC(=O)NCc2ccc3c(N)nccc3c2)c1: condition not met
- Cc1cc2cc(N/C(N[C@H]3CCCCN(CC(=O)N4CCCC4)C3=O)=C(/C#N)C(=O)NC(N)=O)ccc2o1: condition met
- COc1cc(C(=O)Nc2cc(C(N)=O)ccc2NC(=O)c2ccc(-n3ccccc3=O)cc2)cc(OC)c1OC: condition met
- CC[C@@H](NC(=O)c1ccc(Cl)s1)C(=O)Nc1ccc(N2CCOCC2=O)c(C)c1: condition met
- CNc1ccc(Oc2nc(Oc3cccc(C(=N)N)c3)c(F)c(NC(C)CCc3ccccc3)c2F)c(C(=O)O)c1 (stereo not given): condition not met
- NCc1cccc(C2CCN(C(=O)c3ccc(C#Cc4ccccc4)o3)CC2)c1.O=C(O)C(F)(F)F: condition not met
- COc1ccc(NC(=N[C@H]2CCCCN(CC(=O)N3CCCC3)C2=O)NC(=O)c2cc(F)cc(F)c2)cc1: condition met
- CS(=O)(=O)c1ccc(S(=O)(=O)N2CCN(CC(=O)NC(CCCN=C(N)N)C(=O)c3nccs3)C(=O)C2)cc1 (stereo not given): condition met
- CN(C(=O)[C@@H]1CCCCN1C(=O)c1ccc(Cl)s1)c1ccc(N2CCCCC2=O)cc1: condition not met
- COc1ccc(NC(=O)c2ccc(N3CCOCC3=O)cc2)c(C(=O)Nc2ccccc2OC)c1: condition not met
- NS(=O)(=O)c1ccccc1-c1ccc(C(=O)NCCC(=O)Nc2ccc(Br)cn2)cc1: condition met
- CCOC(=O)[C@]1(C)CCC[C@@]2(C)[C@@H]3CC[C@@]4(C)C[C@]3(CC[C@@H]21)C/C4=N\NC(=S)Nc1ccc(OC)cc1: condition not met
- CN(C(=O)[C@H]1Cc2ccccc2CN1C(=O)Cc1ccc(C(F)(F)F)cc1)c1ccc(N2CCCCC2=O)cc1: condition not met
- COc1ccc(NC(=O)c2cccc(O)c2NC(=O)c2ccc(N3CCCN(C)CC3)cc2)nc1.Cl: condition met
- Cc1cc(C(=O)Nc2ccc(C(=N)N3CCCC3)cc2F)n(-c2cc3ccccc3cc2F)n1: condition met
- O=C(Nc1ccc(Cl)s1)[C@@H]1OC(=O)N2c3ccc(N4CCOCC4=O)cc3OC[C@@H]12: condition not met
- O=C(CCS(=O)(=O)c1ccc2cc(Cl)ccc2c1)N1CCN(c2cccc3ncc([N+](=O)[O-])n23)CC1: condition met
- N=C(N)c1ccc(CNC(=O)Cn2c(-c3cccc(N)c3)c(Cl)nc(NC3CCC3)c2=O)c(F)c1: condition met
- O=C(COc1ccc2[nH]c(-c3ccc(Cl)s3)nc2c1)Nc1ccc(N2CCOCC2=O)cc1: condition met
- COCC(Cc1cccc(C(=N)N)c1)C(/C=C/c1ccccc1)NC(=O)c1ccc(-c2ccccc2)cc1 (stereo not given): condition met
- COc1ccc(NC(=O)c2nc3c(s2)CN(C)CC3)c(C(=O)Nc2ccc(F)cn2)c1: condition met
- N=C(N)NCCC[C@H](NC(=O)CN1CCN(S(=O)(=O)Cc2ccccc2)[C@H](CO)C1=O)C(=O)c1nccs1: condition met
- CC(=O)OCC(Cc1cccc(C(=N)N)c1)C(/C=C/c1ccccc1)NC(=O)c1ccc(-c2ccccc2)cc1 (stereo not given): condition met

* * *

// read-out IC50, gathered for UniProt P00742 from published studies
RESULT TYPE: IC50 (nM)

• N=C(N)NCCC[C@H](NC(=O)[C@H](Cc1cccc(-c2ccccc2)c1)NC(=O)[C@@H](Cc1ccccc1)NS(=O)(=O)Cc1ccccc1)C(=O)c1nccs1 = 1070
• CC(=N)NCCCC(NC(=O)OC(C)(C)C)C(=O)NCC(=O)N[C@H](C=O)CCCN=C(N)N (single isomer, unassigned) = 1000
• O=C(CCS(=O)(=O)c1ccc2cc(Cl)ccc2c1)N1CCN(c2ccncc2)CC1 = 160
• COc1cccc(C(=O)N2CN(c3ccc(N4CCCCC4=O)cc3)C(=O)c3cc(OC)ccc32)c1 = 354000
• CC[C@@H](C)[C@@H](NS(=O)(=O)Cc1ccc(C(F)(F)F)cc1)C(=O)N1C[C@@](C)(O)C[C@H]1C(=O)NCc1ccc2c(N)nccc2c1 = 328
• CN1CCc2nc(C(=O)N[C@@H]3CCCC[C@H]3CNC(=O)c3ccc(Cl)s3)sc2C1 (relative stereo) = 439
• COc1ccc(N/C(=N\C(=O)C2CCN(C(=O)c3ccccc3)CC2)N[C@H]2CCCCN(CC(=O)N3CCCC3)C2=O)cc1 = 506
• CN(C)C(=O)C(C)(C)c1ccc2c(c1)nc(Cc1ccc(C(=N)N)cc1)c(=O)n2C = 9200
• CN1CCc2nc(C(=O)NC3CN(S(C)(=O)=O)CCC3NC(=O)c3cc4cc(Cl)ccc4[nH]3)sc2C1 (racemic) = 28
• O=C(Nc1ccc(Cl)cc1C(=O)Nc1ccc(Cl)cn1)c1ccc(CN2CCC(C(=O)O)CC2)cc1 = 230
• O=C1CN(S(=O)(=O)c2ccc3cc(Cl)ccc3c2)CC2(CO)NC3(CCN(c4ccncc4)CC3)CN12 (stereo not given) = 0.61
• CCOC(=O)[C@]1(C)CCC[C@@]2(C)[C@@H]3CC[C@@]4(C)C[C@]3(CC[C@@H]21)C[C@H]4OCc1cn(Cc2ccccc2)nn1 = 29400
• NS(=O)(=O)c1ccccc1-c1ccc(C(=O)Nc2ncccc2C(=O)Nc2ccc(Cl)cn2)cc1 = 48

* * *

// read-out IC50, gathered for UniProt:P00742 from published studies
RESULT TYPE: IC50 (nM)

- CN1CCCN(c2ccc(C(=O)Nc3c(O)cccc3C(=O)Nc3ccc(Cl)cc3)cc2)CC1.Cl: 6.9
- CS(=O)(=O)N(Cc1ccc2ccc(C(=N)N)cc2c1)C1CCN(S(=O)(=O)c2cc(Cl)sc2Cl)CC1: 100
- CN1CCc2sc(C(=O)N3CCN(S(=O)(=O)c4ccc5cc(Cl)ccc5c4)CC3)nc2C1: 210

* * *

// read-out pIC50, gathered for Coagulation factor X (Homo sapiens, UniProt P00742) from published studies
pIC50: −log10 of the molar value.
RESULT TYPE: pIC50

- O=C(Nc1ccc(N2CCCCC2)cc1)[C@@H]1Cc2ccccc2CN1C(=O)OCc1ccccc1: < 3.30
- Cc1ncn(-c2ccc(C(=O)N[C@@H]3CCN(c4ncc(Cl)c5c(N)noc45)C3)c(Cl)c2)n1: < 4.00
- O=C(Cc1c(F)ccc(NS(=O)(=O)Cc2ccccc2)c1F)NCCCn1ccnc1: < 4.52

* * *

// read-out IC50, gathered for Coagulation factor X (Homo sapiens, UniProt P00742) from published studies
RESULT TYPE: IC50

• O=C(Cc1ccc(N2CCOCC2=O)cc1)Nc1ccc2[nH]c(-c3ccc(Cl)s3)nc2c1 = 1.2 µM
• O=C(c1ccc2c(n1)CCNC2)N1CCN(S(=O)(=O)c2ccc3cc(Cl)ccc3c2)CC1 = 0.92 µM
• O=C(Nc1ccc(Cl)cn1)[C@@H]1OC(=O)N2c3ccc(N4CCOCC4=O)cc3OC[C@@H]12 = > 100 µM

* * *

pIC50: −log10 of the molar value.
// read-out pIC50, gathered for Coagulation factor X (Homo sapiens, UniProt P00742) from published studies
RESULT TYPE: pIC50

- CN(C)CCOc1cc(C(=N)N(C)C)ccc1C(=O)Nc1ccc(Cl)cc1C(=O)Nc1ccc(Cl)cn1: > 9.30
- Cc1cc(N2CCC(NC(=O)c3ccc(-n4cnnc4)cc3Cl)C2)c2onc(N)c2c1 (racemic): < 4.00
- O=C(Cc1c(F)ccc(NS(=O)(=O)Cc2ccccc2)c1F)NCC1CCNCC1: < 4.52

* * *

pIC50: −log10 of the molar value.
// read-out pIC50, gathered for Coagulation factor X (Homo sapiens, UniProt P00742) from published studies
RESULT TYPE: pIC50

- Cc1nn(-c2ccccc2)c(C)c1NC(=O)COC(=O)Cn1cnc2ccccc2c1=O: < 3.70
- Cc1cc(NC(=O)[C@@H](CC(C)C)NC(=O)c2ccc(Cl)s2)ccc1N1CCOCC1=O: 8.14
- Nc1cccc(-c2c(Cl)nc(NC3CCC3)c(=O)n2CC(=O)NCc2ccnc(N)n2)c1: < 4.52
- N=C(N)CCCC[C@H]1C(=O)N[C@H]2Cc3ccccc3[C@@H]21: < 3.70

* * *

// read-out pIC50, gathered for Coagulation factor X (Homo sapiens, UniProt P00742) from published studies
pIC50: −log10 of the molar value.
RESULT TYPE: pIC50

• O=C(CN1CCCC[C@H](N/C(=C/[N+](=O)[O-])Nc2ccccc2)C1=O)N1CCCC1 = 4.78
• CN1CCc2nc(C(=O)Nc3ccccc3CNC(=O)c3cc(Cl)ccn3)sc2C1 = 5.38
• C/C(=C(\F)C(=O)Nc1ccc(-c2ccccc2S(N)(=O)=O)cc1)c1ccc2ccnc(N)c2c1 = 7.85
• COc1ccc(NC(=O)c2ccc(C)c(O)c2NC(=O)c2ccc(N3CCCN(C)CC3)cc2)cc1.Cl = 7.21
• CCN1CCN=C1c1ccc(C(=O)N2CCN(S(=O)(=O)c3cc4cc(Cl)ccc4[nH]3)CC2)cc1 = 7.92
• C#Cc1ccc(NC(=O)c2cc(Cl)ccc2NC(=O)c2ccc(C(=N)N(C)C)cc2)nc1 = 9.10
• C/C(=C1\CC(=O)N(c2ccc(C(=O)N3CCCC3)cc2)C1=O)c1cccc(C(=N)N)c1 = 6.74
• CCOC(=O)C1CCN(Cc2ccc(C(=O)Nc3ccc(Cl)cc3C(=O)Nc3ccc(Cl)cn3)cc2)CC1 = 6.77
